molecular target: PDGFRalpha(V561D) (Homo sapiens, UniProt P16234, V561D); construct: recombinant human PDGFRalpha, amino acids 550end containing the V561 D mutation; 6His (N); test: PDGFRalpha(V561D) assay; conditions: recombinant human PDGFRalpha aa 550-end, 200 μM ATP, 1.4E-06 means 1.4×10^−6, read-out: Inhibition (IC50) of PDGFRα (V561D)
Sequence (P16234 550-1089 V561D): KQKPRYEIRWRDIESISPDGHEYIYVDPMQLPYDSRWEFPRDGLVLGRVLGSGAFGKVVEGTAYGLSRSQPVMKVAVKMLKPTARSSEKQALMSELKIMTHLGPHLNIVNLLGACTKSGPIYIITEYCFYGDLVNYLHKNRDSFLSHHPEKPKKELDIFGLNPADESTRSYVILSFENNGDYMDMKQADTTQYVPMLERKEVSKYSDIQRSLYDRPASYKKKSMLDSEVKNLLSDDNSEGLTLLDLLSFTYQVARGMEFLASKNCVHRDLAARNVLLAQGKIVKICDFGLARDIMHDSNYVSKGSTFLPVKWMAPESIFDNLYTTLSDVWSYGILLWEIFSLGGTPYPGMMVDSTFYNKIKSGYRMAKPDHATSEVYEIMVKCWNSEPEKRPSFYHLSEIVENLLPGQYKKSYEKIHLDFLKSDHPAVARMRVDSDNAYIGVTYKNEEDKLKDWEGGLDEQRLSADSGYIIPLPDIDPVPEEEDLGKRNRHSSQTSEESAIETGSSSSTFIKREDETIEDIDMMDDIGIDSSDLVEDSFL
pIC50: −log10 of the molar value.
test readout: pIC50

I. O=C1COCCN1c1ccc(-n2cc(-c3cc4cc(F)ccc4[nH]c3=O)nn2)cc1F [A33]
II. NC(=O)[C@H]1CCCN1C(=O)c1ccc(-n2cc(-c3cc4cc(F)ccc4[nH]c3=O)nn2)cc1 [A262]
III. O=C(c1ccc(-n2cc(-c3cc4cc(F)ccc4[nH]c3=O)nn2)cc1)N1CCC(N2CCCC2)C1 (stereo not shown) [A100]
IV. CN1CCN(C(=O)c2ccc(-n3cc(-c4cc5cc(F)ccc5[nH]c4=O)nn3)cc2)CC1=O [A92]
[Q] Rank items: key pIC50, increasing. # list labels per requested ordering
[A] II, III, IV, I

Each recorded value in this set is attributed to patent US11939314B2.
